Listing: kon of selected binders
assayTarget: T1, human GFRα3 expressed with a C-terminal mFc tag (human)
T1 construct: also called hGFRα3-mFc
T1 chain: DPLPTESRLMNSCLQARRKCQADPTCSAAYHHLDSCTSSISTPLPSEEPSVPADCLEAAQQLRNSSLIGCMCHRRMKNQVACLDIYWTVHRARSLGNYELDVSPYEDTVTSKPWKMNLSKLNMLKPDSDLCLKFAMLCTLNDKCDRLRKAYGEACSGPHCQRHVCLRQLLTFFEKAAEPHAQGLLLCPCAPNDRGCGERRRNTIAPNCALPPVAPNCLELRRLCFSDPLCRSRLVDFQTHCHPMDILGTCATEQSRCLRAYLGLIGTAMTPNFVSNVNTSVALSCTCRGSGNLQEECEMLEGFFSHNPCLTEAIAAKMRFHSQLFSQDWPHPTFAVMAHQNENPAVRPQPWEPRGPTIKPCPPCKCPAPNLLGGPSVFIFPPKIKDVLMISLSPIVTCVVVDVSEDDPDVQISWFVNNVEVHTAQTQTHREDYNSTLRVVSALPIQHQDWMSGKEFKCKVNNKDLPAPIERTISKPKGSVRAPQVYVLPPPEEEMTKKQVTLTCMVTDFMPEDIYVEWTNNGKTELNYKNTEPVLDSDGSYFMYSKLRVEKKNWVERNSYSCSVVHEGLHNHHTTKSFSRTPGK
testMethodNotes: SPR, Ab captured, 25C

binder	kon
H4H2291S (antibody, human IgG4, V domains shown, human IgG4 Fc (H4H)) VH: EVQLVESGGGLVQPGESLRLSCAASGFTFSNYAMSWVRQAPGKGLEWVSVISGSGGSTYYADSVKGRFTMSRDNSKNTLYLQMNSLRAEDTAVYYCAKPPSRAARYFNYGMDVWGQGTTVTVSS VL: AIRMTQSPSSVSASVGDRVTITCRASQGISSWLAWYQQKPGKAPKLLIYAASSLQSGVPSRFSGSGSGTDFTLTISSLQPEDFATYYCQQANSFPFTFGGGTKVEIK	1.03e+06 M⁻¹ s⁻¹

Prompt: So what's the measured kon for this one? H4H2346S (antibody, human IgG4, V domains shown, human IgG4 Fc (H4H)) VH: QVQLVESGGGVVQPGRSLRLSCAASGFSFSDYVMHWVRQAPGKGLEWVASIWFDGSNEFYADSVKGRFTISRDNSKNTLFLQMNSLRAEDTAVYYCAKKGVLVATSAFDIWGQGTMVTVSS VL: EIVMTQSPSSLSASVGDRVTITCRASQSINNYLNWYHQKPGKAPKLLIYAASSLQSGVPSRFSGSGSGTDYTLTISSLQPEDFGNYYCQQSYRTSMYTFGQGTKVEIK
Completion: 647000 M⁻¹ s⁻¹

Where do these numbers come from? They come from patent US20140056903A1.
